Experiment: NCI Yeast Anticancer Drug Screen. Data for the cln2 rad14 strain (AID 165)
Conditions: S. cerevisiae cln2 rad14 strain, at 50.0 µM, hits give high values
Compounds without any hit were thinned out: in the full panel of roughly 79,000, 15% have a hit.
Recorded growth inhibition determines the label; the label ranges are low group (below 50%), middle group (50% to below 90%), high group (90% or more)

1. Nc1cc(-c2ccccc2)ccc1O : middle group
2. Cc1ccc(N2C(=O)C=CC2=O)cc1 : high group
3. COc1ccc(C(OCC2OC(n3ccc(NC(=O)c4ccccc4)nc3=O)C(O)C2O)(c2ccccc2)c2ccccc2)cc1 (stereo not drawn) : middle group
4. O=C(c1ccccc1)c1cc2ccccc2oc1=O : low group
5. Cc1onc(-c2ccccc2)c1C(=O)N/N=C/c1cc(Cl)cc(Cl)c1O : middle group
6. CCCCCCCCCCCCSC(=N)N : high group
7. CN1CSC(=S)N(Cc2ccccc2)C1 : low group
8. Cc1nc([N+](=O)[O-])c(Sc2nncc(-c3ccccc3)n2)n1C : high group
9. O=C(Cc1nc2cc(Cl)c(Cl)cc2nc1CC(=O)c1cccnc1)c1cccnc1 : high group
10. Oc1c(C(Nc2ccccc2)c2ccccc2)ccc2cccnc12 (stereo not drawn) : high group
11. COc1ccc2nc3cc([N+](=O)[O-])ccc3c(NNc3ccccc3)c2c1 : low group
12. CCCCCCC1N=C(N)N=C(N)N1c1cccc(Cl)c1 (stereo not drawn) : low group
13. O=C(CCl)N1c2ccccc2Sc2c1ccc1ccccc21 : low group
14. c1ccc(-c2cccc(-c3ccccn3)n2)nc1 : high group
15. C=C(C(N)=O)C(N)C(=O)O (stereo not drawn) : low group
16. Cc1ccccc1N=C(N)Nc1ccccc1C (tested in a mixture with another compound) : low group
17. CCc1cnc2ccccc2c1/C=C/c1ccc(N(C)C)cc1 : high group
18. COc1cccc(N=N/C(=N\NC(=O)c2cc(Br)ccc2O)c2ccc(N(CCC#N)CCC#N)cc2OC)c1 : low group
19. O=C(NOC(=O)c1ccccc1)c1ccccc1 : high group
20. NNc1cccc([N+](=O)[O-])c1 : middle group
21. CN(C)CC(C)(CN(C)C)C(=O)/C=C/c1c(Cl)cccc1Cl : low group
22. O=C(c1ccccc1)c1ccc(O)c2ncccc12 : high group
23. CCc1oc2ccccc2c1C(=O)c1cc(Br)c(O)c(Br)c1 : high group
24. Cn1c(-c2ccccc2)c(/C=C/C2=[N+](C)c3ccccc3C2(C)C)c2ccccc21 : high group
25. O=[n+]1c2ccccc2n([O-])c2cc(Cl)ccc21 : high group
26. CN1CCC(c2ccccc2)(c2ccccc2)C(=O)C1 : middle group
27. O=C(c1ccccc1)C(O)C(Br)(CBr)c1ccccc1 (stereo not drawn) : high group
28. O=C1C=CC2C3C(=O)N(c4ccccc4)C(=O)C3C1N2Cc1ccccc1 (stereo not drawn) : low group
29. O=C1Nc2ccc(Br)cc2C1=O : middle group
30. CCCOC(=O)c1nc(N(CC2CCCCC2)C(=O)NC)sc1/N=C/c1ccccc1 : low group
31. CC(C)(C)c1ccc(O)c(-c2ccccc2)c1 : high group
32. CCN(CC)CCNc1ccc([N+](=O)[O-])c2sc3ccccc3c(=O)c12 : low group
33. O=[N+]([O-])CC(O)c1ccccc1 (stereo not drawn) : high group
34. CC1(C=O)CCC23COC4(CCC5C6(C)CCC(OC7OCC(OC8OC(CO)C(O)C(OC9OC(CO)C(O)C(O)C9O)C8OC8OCC(O)C(O)C8O)C(O)C7OC7OC(CO)C(O)C(O)C7O)C(C)(C)C6CCC5(C)C4(C)CC2O)C3C1 (stereo not drawn) : middle group
35. CN(C)c1ccc(/C=C/c2nccc3ccccc23)cc1 : middle group
36. Cc1c2c(c(C)c3c[n+](C)ccc13)Oc1ccccc1O2 : middle group
37. CN=C(N)N/N=C(\C)c1ccc2c(c1)Cc1ccccc1-2 : middle group
38. S=C=Nc1ccc(N2CCOCC2)cc1 : high group
39. O=[N+]([O-])/C(=C/c1ccccc1)c1ccccc1 : high group

Ref: PubChem BioAssay (NCI)
